Here, each record is paired with measured pKd data.
Target: T1, human TF ECD-His (hTF-his) (human, UniProt P13726 33-251)
T1 construct: also called bio-hTF-his; human TF-His protein
Experiment: SPR Biacore T200, antibody on Protein A chip, TF-His as analyte, 1:1 model
pKd: −log10 of the molar value.

{"columns": ["Binder", "pKd"],
 "data": [
  ["hu67-10 (antibody, human IgG1, kappa, V domains shown) VH: EVTLKQSGPVLVKPTQTLTLTCTVSGFSLTNYGVNWIRQPPRKGLEWLGVIWSRGNTDYNAAFISRLTISKDNSKSQVVLKMTNMDPVDTATYYCARKDAVVATDALDYWGQGTTVTVSS VL: DIQMTQSPSSLSASVGDRVTITCKASQDVSTAVAWYQQKPGKAPKLLIYSTSYRYTGVPSRFSGSGSGTDFTFTISSLQPEDIATYYCQQHYSTPYTFGGGTKVEIKR", 7.82],
  ["hu67-11 (antibody, human IgG1, kappa, V domains shown) VH: EVQLQESGPGLVKPSQTLSLTCTVSGFSLTNYGVNWIRQPPGKGLEWIGVIWSRGNTDYNAAFISRVTISKDTSKNQVSLKLSSVTAADTAVYYCARKDAVVATDALDYWGQGTTVTVSS VL: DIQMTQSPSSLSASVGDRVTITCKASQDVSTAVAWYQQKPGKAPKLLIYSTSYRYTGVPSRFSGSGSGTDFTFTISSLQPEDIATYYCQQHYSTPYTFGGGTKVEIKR", 7.78],
  ["hu10H10-53 (antibody, V domains shown, H11+L6; Full-length IgG) VH: EVQLVQSGSELKKPGASVKVSCKASGYTFITYWIEWVKQRPGQGLEWMGDILPYSGSTNYNENFKGRATFSADTSVSTAYLQISSLKAEDTAVYYCARSGYYGNSGFAYWGQGTLVTVSS VL: DIQMTQSPSSLSASVGDRVTITCKSSQSLLSSSNQKNYLTWYQQKPGKAPKLLIYWASTREEGVPSRFSGSGSGTDFTLTISSLQPEDFATYYCQNDYTYPLTFGQGTKLEIK", 9.33]
]}

Provenance of the data: patent EP4703388A1
